# ASSAYED TARGET: T1, Human CD33 full length (human, UniProt P20138 18-364)
# T1 construct: Stably expressed on HEK293F cells by lentiviral transduction; also called Human CD33 (on HEK293F cells)
# T1 sequence (P20138 18-364 limits assumed): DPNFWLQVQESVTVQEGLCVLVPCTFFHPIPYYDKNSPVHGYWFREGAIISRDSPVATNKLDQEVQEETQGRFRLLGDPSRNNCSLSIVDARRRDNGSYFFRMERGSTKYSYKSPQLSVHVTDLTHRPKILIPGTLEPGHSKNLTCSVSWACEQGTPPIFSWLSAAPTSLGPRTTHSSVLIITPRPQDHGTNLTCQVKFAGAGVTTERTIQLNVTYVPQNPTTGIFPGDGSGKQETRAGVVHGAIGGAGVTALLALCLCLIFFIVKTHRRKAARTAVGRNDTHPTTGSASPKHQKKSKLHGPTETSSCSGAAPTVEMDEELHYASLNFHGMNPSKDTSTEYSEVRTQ
# ASSAY DETAILS: flow cytometry on HEK293F cells expressing human CD33
QUANTITY KIND: mean fluorescence intensity at 0.6 nM mAb (MFI)
Record the value in MFI, omitting the unit from your answer.

Given item C33B915 (antibody, V domains shown, OMNIMouse mAb; HC C33H255, LC C33L121 (same IDs as C33B907); also called C33F553) VH: EVQLVESGGGLVQPGRSLRLSCAASGFTFDDYAMHWVRQVPGEGLEWVSGISWNGGDMVYADSVKGRFTISRDNAKNSLYLQMNSLRPEDTALYYCVKDMPYFDFLTGSDYYYYGMDVWGQGTTVTVSS VL: SYELTQPPSVSVSPGQTASITCSGDNLGNEHVCWYHQKPGQSPVLVIYQNNKRPSGIPERFSGSNSGNTATLSISGTQATDEADYYCQAWDSTTAVFGGGTKLTVLG , the value recorded as its mean fluorescence intensity at 0.6 nM mAb is 138000

Query C33B914 (antibody, V domains shown, OMNIMouse mAb; HC C33H254, LC C33L120 (same IDs as C33B906); also called C33F552) VH: QVQLVESGGGVVQPGRSLRLSCAASGFTFSYYGMHWVRQAPDKGLEWVAVIWFDGNNKYYADSVKGRFTISRDNSKNTLYLQMNSLRAEDTAVYYCARDRELLFDYWGQGTLVTVSS VL: SYELTQPPSVSVSPGQTASITCSGDELGDMYACWYQQKPGQSPLVVIYQDSKRPSGIPERFSGSNSGNTATLTISGTQAMDEAAYYCQTWDTRIAVFGGGTNLTVLG yields mean fluorescence intensity at 0.6 nM mAb of 153000

GET /value?item= C33B909 (antibody, V domains shown, OMNIMouse mAb; HC C33H249, LC C33L115 (same IDs as C33B901); the campaign was cloned into both IgG1 and IgG4 PAA) VH: EVQLVESGGGLVQPGRSLRLSCVASGFTFDDYAIHWVRQAPGKGLEWVSGLSWNGGNIGYADSVKGRFTISRDNAKNSLYLQMNSLKTEDTAFYYCTKDTPYGDYFDYWGQGTLVTVSS VL: DIQMTQSPSSVWASVGDRVTITCRASQGISSWLAWYQQQPGKAPNLLIYRSSSLQSGVPSRFSGSGSGTDFTLTISSLQPEDFATYYCQQDNSFPYTFGQGTKLEIKR &field=mean fluorescence intensity at 0.6 nM mAb returns 154

C33B910 (antibody, V domains shown, OMNIMouse mAb; HC C33H250, LC C33L116 (same IDs as C33B902)) VH: EVQLVESGGGLVQPGRSLRLSCAGSGFTFDDYAIHWVRQAPGKGLEWVSGLSWNGGNIGYADSVKGRFTISRDNAKNSLYLQLNSLKTEDTAFYYCAKDSPYGDYFDYWGQGTLVTVSS VL: DIQMTQSPSSEWASVGDRVTITCRASQGISSWLAWYQQKPGKAPKLLIYGASSWQSGVPSRFSGSGSGTDFTLTISSLQPEDFATYYCQQDNSFPYTFGQGTKLEIKR has a reported mean fluorescence intensity at 0.6 nM mAb of 151
